biological target: UniProt P31639; assay: 14C-AMG uptake assay, human SGLT2 in CHO-K1 cells; conditions: sodium-dependent 14C-AMG uptake, n = 5
Sequence (P31639 whole entry): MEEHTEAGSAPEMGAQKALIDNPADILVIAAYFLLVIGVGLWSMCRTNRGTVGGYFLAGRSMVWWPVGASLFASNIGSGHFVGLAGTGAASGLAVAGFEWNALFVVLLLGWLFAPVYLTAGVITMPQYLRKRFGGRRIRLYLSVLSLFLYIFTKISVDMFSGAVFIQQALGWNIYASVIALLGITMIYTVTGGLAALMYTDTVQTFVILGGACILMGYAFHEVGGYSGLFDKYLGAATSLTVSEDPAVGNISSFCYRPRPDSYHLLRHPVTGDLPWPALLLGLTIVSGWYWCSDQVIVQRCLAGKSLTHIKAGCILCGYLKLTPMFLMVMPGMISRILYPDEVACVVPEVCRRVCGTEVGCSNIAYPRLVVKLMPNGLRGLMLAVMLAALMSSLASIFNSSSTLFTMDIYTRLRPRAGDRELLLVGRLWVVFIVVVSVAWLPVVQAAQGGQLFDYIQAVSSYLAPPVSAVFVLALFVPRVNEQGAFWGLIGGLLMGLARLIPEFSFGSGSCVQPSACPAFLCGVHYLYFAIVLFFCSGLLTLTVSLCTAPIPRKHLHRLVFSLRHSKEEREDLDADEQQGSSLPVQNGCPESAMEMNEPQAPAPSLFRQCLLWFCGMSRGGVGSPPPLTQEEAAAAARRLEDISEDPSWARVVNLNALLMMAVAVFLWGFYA
reported_metric: IC50 (nM)
Note: unit nM is implicit; provide only the numeric part.

IC50 reported for this compound Cc1cc(/C=C/CCN2CCCC3(CCN(C(=O)CNC(=O)NCC(C)C)CC3)C2)ccc1Cc1c(O[C@@H]2O[C@H](CO)[C@@H](O)[C@H](O)[C@H]2O)n[nH]c1C(C)C : 171

----------
Molecular target: human SGLT1 (Homo sapiens, UniProt P13866)
Sequence (P13866 whole entry): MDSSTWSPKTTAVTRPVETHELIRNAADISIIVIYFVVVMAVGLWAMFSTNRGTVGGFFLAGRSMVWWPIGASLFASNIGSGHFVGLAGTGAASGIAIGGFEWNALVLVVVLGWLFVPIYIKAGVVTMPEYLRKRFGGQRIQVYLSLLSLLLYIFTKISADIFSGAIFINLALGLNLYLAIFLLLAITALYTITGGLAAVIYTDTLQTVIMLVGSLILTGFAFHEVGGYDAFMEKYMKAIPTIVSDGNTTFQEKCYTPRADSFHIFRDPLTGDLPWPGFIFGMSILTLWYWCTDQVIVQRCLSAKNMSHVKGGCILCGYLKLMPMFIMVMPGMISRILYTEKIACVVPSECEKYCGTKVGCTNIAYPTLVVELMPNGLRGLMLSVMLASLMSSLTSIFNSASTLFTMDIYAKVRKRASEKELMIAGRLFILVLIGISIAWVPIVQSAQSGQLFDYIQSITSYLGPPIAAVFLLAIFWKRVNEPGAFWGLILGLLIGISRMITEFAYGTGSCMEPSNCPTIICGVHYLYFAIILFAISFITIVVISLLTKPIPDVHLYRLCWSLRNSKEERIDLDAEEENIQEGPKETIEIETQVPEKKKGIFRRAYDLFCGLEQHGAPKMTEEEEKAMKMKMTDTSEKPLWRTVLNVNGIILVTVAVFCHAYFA
Experiment: 14C-AMG uptake assay, human SGLT1 in CHO-K1 cells
Settings: sodium-dependent 14C-AMG uptake, CHO-K1 cells, n = 5
Experimental: The cDNA encoding human SGLT1 (slc5a1, NM_000343), human SGLT2 (slc5a2, NM_003041) and mouse SGLT1 (slc5a1, NM_019810.4) are purchased from Openbiosystems, Invitrogen and Openbiosystems, respectively. […] The SGLT activity is measured as sodium-dependent ^14C-AMG uptake in the above cell lines described as follows. […] After mixing, the scintillation signal in the plate is counted in a MicroBeta (PerkinElmer). […]
reported_metric: pIC50
Scale note: pIC50 = -log10(concentration in M).

pIC50 reported for this compound Cc1cc(/C=C/CCN2CCCC3(CCN(C(=O)CNC(=O)NCC(C)C)CC3)C2)ccc1Cc1c(O[C@@H]2O[C@H](CO)[C@@H](O)[C@H](O)[C@H]2O)n[nH]c1C(C)C [Example 1] : 7.76
